# systemTested: dipeptidyl peptidase IV (UniProt P27487)
# Sequence (P27487 41-765): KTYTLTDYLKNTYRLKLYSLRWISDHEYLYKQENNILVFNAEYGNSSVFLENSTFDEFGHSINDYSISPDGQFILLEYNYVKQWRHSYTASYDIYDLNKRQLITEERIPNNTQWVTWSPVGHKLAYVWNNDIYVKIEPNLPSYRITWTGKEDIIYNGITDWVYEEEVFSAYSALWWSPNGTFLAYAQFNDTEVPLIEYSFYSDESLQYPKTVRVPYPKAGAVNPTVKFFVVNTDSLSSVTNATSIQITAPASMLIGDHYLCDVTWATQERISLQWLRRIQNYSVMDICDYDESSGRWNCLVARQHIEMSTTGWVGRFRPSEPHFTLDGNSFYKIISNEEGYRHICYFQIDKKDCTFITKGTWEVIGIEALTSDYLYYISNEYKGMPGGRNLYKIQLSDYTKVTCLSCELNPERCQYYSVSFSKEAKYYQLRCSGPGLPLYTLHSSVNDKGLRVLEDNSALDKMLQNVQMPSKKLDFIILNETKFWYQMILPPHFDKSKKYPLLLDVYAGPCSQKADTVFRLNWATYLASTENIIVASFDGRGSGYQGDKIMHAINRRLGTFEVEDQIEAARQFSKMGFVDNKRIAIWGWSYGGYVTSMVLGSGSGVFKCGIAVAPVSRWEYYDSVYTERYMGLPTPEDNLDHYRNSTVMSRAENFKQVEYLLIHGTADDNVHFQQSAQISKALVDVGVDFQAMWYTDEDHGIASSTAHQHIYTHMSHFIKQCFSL
endpoint: IC50 of inhibition of DPP-IV activity in vitro (µM)

Example entries begin here.
binder: PQNHA
unitsText: µM
recordedResult: 24600

binder: VADW
unitsText: µM
recordedResult: 350

binder: WDSY
unitsText: µM
recordedResult: 630

binder: FPQS
unitsText: µM
recordedResult: 350

[P] WIAVK
[Q] YSYA
[R] VAMP
[S] FNVDSE
[T] WNVN
Inquiry: Sort entries by IC50 of inhibition of DPP-IV activity in vitro from minimum to maximum value. Rank them, then answer with their labels in that order.
Reply text: R, T, Q, P, S

Taken from paper PMC12527977.
